assay: Selectivity index, ratio of LD50 for African green monkey Vero cells to MIC>99 for Mycobacterium tuberculosis H37Rv; assay type: toxicity; conditions: read-out: Selectivity Index
reported_metric: selectivity ratio

Q: // fetch selectivity ratio given entry C[C@H]1[C@H](C)Oc2c3c(c4c(-c5ccccc5)cc(=O)oc4c2[C@H]1O)OC(C)(C)C=C3 [SOULATTROLIDE]
A: > 3.2
